Recorded values, source patent US10189841B2.

biological target: USP1 (construct USP1 (I-785, GG670, 671AA)/UAF1 (I-677)-Flag) (Homo sapiens (Human), UniProt O94782, G670A/G671A); assay: Ubiquitin-Rhodamine 110 assay for USP1 activity; settings: USP1/UAF1 25 pM, Ub-Rh110 25 nM, 30 min preincubation
Sequence (O94782 whole entry G670A/G671A): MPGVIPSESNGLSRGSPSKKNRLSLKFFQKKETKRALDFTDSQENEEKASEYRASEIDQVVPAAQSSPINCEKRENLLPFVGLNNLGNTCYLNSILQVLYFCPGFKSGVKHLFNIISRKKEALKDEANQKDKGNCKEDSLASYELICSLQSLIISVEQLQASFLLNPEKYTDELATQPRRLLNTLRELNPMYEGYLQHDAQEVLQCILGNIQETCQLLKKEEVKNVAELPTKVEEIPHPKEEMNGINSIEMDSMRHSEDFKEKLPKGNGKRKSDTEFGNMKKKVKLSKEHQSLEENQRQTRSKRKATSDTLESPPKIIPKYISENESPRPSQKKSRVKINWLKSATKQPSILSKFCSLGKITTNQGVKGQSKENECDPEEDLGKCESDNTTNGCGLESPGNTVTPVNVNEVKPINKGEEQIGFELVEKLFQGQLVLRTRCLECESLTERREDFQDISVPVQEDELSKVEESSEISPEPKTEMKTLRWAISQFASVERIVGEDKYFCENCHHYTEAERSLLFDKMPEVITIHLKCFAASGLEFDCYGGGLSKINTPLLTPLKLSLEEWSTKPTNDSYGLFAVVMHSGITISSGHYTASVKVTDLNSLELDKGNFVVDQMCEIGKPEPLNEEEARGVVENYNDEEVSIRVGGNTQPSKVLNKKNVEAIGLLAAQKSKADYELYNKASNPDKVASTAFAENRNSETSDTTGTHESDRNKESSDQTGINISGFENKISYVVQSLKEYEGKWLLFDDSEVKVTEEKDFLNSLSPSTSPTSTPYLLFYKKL
Sequence (Q8TAF3 whole entry partner): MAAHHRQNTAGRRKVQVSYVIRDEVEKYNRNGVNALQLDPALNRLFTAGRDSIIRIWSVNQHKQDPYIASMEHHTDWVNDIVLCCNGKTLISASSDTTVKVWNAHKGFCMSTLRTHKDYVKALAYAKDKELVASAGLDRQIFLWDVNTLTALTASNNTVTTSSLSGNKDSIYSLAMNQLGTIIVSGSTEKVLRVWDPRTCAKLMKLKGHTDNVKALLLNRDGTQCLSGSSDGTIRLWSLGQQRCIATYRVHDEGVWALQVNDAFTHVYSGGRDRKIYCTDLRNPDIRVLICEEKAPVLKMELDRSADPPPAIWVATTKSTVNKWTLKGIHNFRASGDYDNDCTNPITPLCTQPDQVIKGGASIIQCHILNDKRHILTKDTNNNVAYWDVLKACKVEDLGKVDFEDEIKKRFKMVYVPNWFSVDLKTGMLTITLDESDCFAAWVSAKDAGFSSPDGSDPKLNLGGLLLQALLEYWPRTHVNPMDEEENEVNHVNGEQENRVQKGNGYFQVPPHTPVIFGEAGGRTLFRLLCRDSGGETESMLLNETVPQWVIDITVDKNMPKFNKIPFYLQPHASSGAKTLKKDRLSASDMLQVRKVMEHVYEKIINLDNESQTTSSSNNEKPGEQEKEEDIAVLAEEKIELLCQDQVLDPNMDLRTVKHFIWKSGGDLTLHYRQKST
quantityKind: IC50

Worked examples, 3 compounds total:
| compound | IC50 |
| --- | --- |
| CC(C)c1ccccc1-c1ncc2[nH]c(=O)n(Cc3ccc(C(=O)N(C)CC(=O)N(C)C)cc3)c2n1 [Compound I-380] | 50 to 200 nM |
| CC(C)c1ncccc1-c1ncc2c(n1)n(Cc1cc(F)c(-c3nc(C(F)(F)F)cn3C)c(F)c1)c(=O)n2C [Compound I-125] | 50 to 200 nM |
| CC(C)c1ncccc1-c1ncc2c(n1)n(Cc1c(F)cc(-c3nc(C(F)(F)F)cn3C)cc1F)c(=O)n2C [Compound I-128] | 50 to 200 nM |

Which IC50 is reported for this compound? Cc1nc(-c2ccc(Cn3c(=O)n(C)c4cnc(-c5ccccc5C(C)C)nc43)cc2)cn1C [Compound I-276] < 50 nM

Which IC50 is reported for this compound? CC(C)c1ccccc1-c1ncc2c(n1)n(Cc1ccc(OCC3CCCN(C)C3)cc1)c(=O)n2C (centres unmarked) [Compound I-230] 200 to 2000 nM

Which IC50 is reported for this compound? Cc1cc(C(=O)N(C)c2ccc(Cn3c(=O)n(C)c4cnc(-c5ccccc5C(C)C)nc43)cc2)n(C)n1 [Compound I-471] > 2000 nM

Which IC50 is reported for this compound? CC(C)c1ccccc1-c1ncc2[nH]c(=O)n([C@@H]3CC[C@H]3c3ccc(-n4cccn4)cc3)c2n1 [Compound I-163] < 50 nM

Which IC50 is reported for this compound? CC(C)c1ccccc1-c1ncc2c(n1)n(Cc1ccc(-c3ccnn3C(C)C)cc1)c(=O)n2C [Compound I-284] 200 to 2000 nM

---

IC50 reference
biological target: USP1 (construct USP1 (I-785, GG670, 671AA)/UAF1 (I-677)-Flag) (Homo sapiens (Human), UniProt O94782, G670A/G671A); assay: Ubiquitin-Rhodamine 110 assay for USP1 activity; conditions: USP1/UAF1 25 pM, Ub-Rh110 25 nM, 30 min preincubation

| cpdSmiles | IC50 |
| --- | --- |
| Cn1cc(C(F)(F)F)nc1-c1ccc(Cn2c(=O)n(C)c3cnc(-c4cccnc4C(F)F)nc32)cc1 | 200 to 2000 nM |
| CC(C)c1ccccc1-c1ncc2[nH]c(=O)n(Cc3ccc(-c4ncco4)cc3)c2n1 | < 50 nM |
| Cc1cn2ccnc2c(-c2ccc(Cn3c(=O)[nH]c4cnc(-c5ccccc5C(C)C)nc43)cc2)n1 | < 50 nM |
| CC(C)c1ccccc1-c1ncc2[nH]c(=O)n(Cc3ccc(C(=O)N4CC5(CCCO5)C4)cc3)c2n1 | 200 to 2000 nM |

Please find the next compound below.
Which IC50 is reported for this compound? CC(C)c1c(F)cccc1-c1ncc2[nH]c(=O)n(Cc3ccc(-c4nccn4C)cc3)c2n1 < 50 nM
